Data credit: patent US10221144B2

# STUDY_TARGET: E. coli DNA gyrase (Escherichia coli, UniProt P0AES4+P0AES6)
# Construct: purchased Inspiralis, UK
# Sequence (P0AES4 whole entry, one chain of several): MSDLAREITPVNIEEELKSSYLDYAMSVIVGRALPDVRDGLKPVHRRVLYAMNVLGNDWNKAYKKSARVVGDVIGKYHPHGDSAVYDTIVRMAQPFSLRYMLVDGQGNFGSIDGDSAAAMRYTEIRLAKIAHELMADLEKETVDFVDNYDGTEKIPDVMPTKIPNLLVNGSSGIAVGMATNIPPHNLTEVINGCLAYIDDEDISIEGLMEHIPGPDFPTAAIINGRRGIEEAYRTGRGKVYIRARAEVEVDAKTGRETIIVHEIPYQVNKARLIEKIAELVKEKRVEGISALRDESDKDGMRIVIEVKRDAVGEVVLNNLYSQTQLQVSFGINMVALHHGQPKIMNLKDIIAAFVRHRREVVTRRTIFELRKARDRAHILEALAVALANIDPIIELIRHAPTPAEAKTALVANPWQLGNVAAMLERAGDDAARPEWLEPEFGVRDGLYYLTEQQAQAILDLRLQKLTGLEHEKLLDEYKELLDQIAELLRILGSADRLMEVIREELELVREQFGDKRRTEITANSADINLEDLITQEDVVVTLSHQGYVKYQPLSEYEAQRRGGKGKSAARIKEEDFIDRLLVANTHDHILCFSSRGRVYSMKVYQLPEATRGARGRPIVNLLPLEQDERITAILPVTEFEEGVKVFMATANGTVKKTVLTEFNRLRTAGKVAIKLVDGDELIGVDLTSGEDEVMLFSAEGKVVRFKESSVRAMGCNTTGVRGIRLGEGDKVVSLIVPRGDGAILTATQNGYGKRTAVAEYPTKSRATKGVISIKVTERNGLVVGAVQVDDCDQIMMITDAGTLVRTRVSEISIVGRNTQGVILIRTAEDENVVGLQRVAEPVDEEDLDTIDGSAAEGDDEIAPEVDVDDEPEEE
# PROTOCOL: DNA gyrase supercoiling assay (E. coli)
# Type: biochemical
# EXPERIMENTAL_PARAMETERS: E. coli; conc. 50 μM; n/a = not active
# Protocol: The above compounds were tested for the inhibition of the enzyme DNA gyrase in a gyrase supercoiling assay and for the inhibition of the enzyme topoisomerase IV in a decatenation assay, in both Gram positive and Gram negative bacteria, according to the following methods. […] Inhibitory activity was expressed as percent of inhibition versus the positive control. The supercoiled or decatenated DNA bands obtained as described in Example 1 were analysed as follows. […]
Counter-ions that a name gives are not always drawn.
Listed next: entries and their corresponding inhibition at 50 µM.
MEASUREMENT_KIND: inhibition at 50 µM

>  <MOLECULE>
O=c1nc(NCC(O)CN2CCN(c3nccc4ncc(C(F)(F)F)cc34)CC2)c2cc(F)ccc2o1 (stereo not shown) [Compound 163]

>  <MEASUREMENT_KIND>
inhibition at 50 µM

>  <RESULT>
80%

$$$$
>  <MOLECULE>
CCOC(=O)C1CN(c2nccc3ccc(F)cc23)CCC1NCc1cc2c(=O)oc3ccccc3c2[nH]1 (racemic) [Compound 184]

>  <MEASUREMENT_KIND>
inhibition at 50 µM

>  <RESULT>
68%

$$$$
>  <MOLECULE>
O=c1oc2ccccc2c2[nH]c(CNC3CCN(c4nccc5ccc(F)cc45)CC3O)cc12 (stereo not shown) [Compound 186]

>  <MEASUREMENT_KIND>
inhibition at 50 µM

>  <RESULT>
70%

$$$$
>  <MOLECULE>
COc1ccc2ncc(F)c(N3CCC(NCc4cc5c([nH]4)c(=O)oc4ccc(F)cc45)CC3)c2n1 [Compound 192]

>  <MEASUREMENT_KIND>
inhibition at 50 µM

>  <RESULT>
70%

$$$$
>  <MOLECULE>
O=c1oc2ccc(F)cc2c2cc(CNC3CCN(c4nccc5nccnc45)CC3)[nH]c12 [Compound 196]

>  <MEASUREMENT_KIND>
inhibition at 50 µM

>  <RESULT>
85%

$$$$
>  <MOLECULE>
O=c1cc(NCC(O)CN2CCN(c3nccc4ncccc34)CC2)c2cc(F)ccc2o1 (stereo not shown) [Compound 166]

>  <MEASUREMENT_KIND>
inhibition at 50 µM

>  <RESULT>
80%

$$$$
>  <MOLECULE>
O=CNC(CN1CCN(c2nccc3ccc(F)cc23)CC1)c1nc2c(=O)oc3ccccc3c2[nH]1 (stereo not shown) [Compound 159, hydrochloride]

>  <MEASUREMENT_KIND>
inhibition at 50 µM

>  <RESULT>
94%

$$$$

----------
# STUDY_TARGET: S. aureus DNA gyrase (Staphylococcus aureus, UniProt P0A0K8+P20831)
# Construct: purchased Inspiralis, UK
# Sequence (P0A0K8 whole entry): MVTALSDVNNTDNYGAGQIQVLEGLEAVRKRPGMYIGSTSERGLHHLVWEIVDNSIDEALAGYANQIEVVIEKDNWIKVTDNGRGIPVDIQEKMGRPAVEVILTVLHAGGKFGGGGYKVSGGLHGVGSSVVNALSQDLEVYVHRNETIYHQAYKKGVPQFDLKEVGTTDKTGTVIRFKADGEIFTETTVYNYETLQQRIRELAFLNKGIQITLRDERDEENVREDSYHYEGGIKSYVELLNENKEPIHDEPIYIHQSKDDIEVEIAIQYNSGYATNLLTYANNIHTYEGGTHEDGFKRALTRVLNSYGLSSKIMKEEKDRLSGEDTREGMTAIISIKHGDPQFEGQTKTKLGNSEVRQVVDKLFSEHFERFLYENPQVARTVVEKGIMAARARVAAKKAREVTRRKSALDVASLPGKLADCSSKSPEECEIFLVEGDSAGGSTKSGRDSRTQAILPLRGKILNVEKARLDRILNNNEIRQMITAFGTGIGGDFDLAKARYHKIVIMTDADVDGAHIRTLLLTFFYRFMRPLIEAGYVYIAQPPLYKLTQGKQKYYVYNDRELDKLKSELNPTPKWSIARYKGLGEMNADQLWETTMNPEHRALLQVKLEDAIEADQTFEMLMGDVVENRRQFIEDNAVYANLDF
# Sequence (P20831 whole entry): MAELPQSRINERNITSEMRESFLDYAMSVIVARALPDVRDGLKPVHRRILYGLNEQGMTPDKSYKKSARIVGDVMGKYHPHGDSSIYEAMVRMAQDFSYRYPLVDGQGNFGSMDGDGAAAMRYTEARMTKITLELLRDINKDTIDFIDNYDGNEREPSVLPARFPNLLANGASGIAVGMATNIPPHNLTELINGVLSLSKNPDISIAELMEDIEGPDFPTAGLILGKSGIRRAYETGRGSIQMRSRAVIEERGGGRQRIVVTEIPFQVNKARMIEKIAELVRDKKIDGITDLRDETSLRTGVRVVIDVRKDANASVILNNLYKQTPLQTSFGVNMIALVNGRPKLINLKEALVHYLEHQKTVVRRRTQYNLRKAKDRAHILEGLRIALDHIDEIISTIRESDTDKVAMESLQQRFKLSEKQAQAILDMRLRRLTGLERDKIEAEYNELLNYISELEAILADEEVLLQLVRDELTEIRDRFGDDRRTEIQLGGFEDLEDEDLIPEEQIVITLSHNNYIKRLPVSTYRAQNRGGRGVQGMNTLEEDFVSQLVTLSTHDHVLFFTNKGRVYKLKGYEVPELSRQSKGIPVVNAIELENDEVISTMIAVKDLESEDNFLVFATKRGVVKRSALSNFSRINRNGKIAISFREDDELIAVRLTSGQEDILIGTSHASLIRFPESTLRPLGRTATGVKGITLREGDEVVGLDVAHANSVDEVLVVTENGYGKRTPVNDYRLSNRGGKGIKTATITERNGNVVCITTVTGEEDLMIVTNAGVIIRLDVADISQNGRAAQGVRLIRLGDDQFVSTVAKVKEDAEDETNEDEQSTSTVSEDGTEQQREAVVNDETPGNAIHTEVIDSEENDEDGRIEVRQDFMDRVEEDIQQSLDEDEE
# PROTOCOL: DNA gyrase supercoiling assay (S. aureus)
# Type: biochemical
# EXPERIMENTAL_PARAMETERS: S. aureus; conc. 100 μM; n/a = not active
MEASUREMENT_KIND: inhibition at 100 µM (%)

>  <COMPOUND>
O=c1cc(NCC(O)CN2CCN(c3nccc4ccccc34)CC2)c2ccccc2o1 (racemic) [Compound 59]

>  <STUDY_TARGET>
S. aureus DNA gyrase (Staphylococcus aureus, UniProt P0A0K8+P20831)

>  <NUMERIC_READOUT>
90

$$$$
>  <COMPOUND>
O=c1cc(NCCCN2CCN(c3nccc4ccc(F)cc34)CC2)c2ccccc2o1 [Compound 67]

>  <STUDY_TARGET>
S. aureus DNA gyrase (Staphylococcus aureus, UniProt P0A0K8+P20831)

>  <NUMERIC_READOUT>
97

$$$$
>  <COMPOUND>
O=c1cc(NCCCN2CCN(c3nccc4cccnc34)CC2)c2ccccc2o1 [Compound 61]

>  <STUDY_TARGET>
S. aureus DNA gyrase (Staphylococcus aureus, UniProt P0A0K8+P20831)

>  <NUMERIC_READOUT>
88

$$$$
>  <COMPOUND>
O=c1cc(NCCCN2CCN(c3nccc4ccc(Cl)cc34)CC2)c2ccccc2o1 [Compound 51]

>  <STUDY_TARGET>
S. aureus DNA gyrase (Staphylococcus aureus, UniProt P0A0K8+P20831)

>  <NUMERIC_READOUT>
91

$$$$
>  <COMPOUND>
O=c1cc(N[C@H]2C[C@H](N3CCN(c4nccc5ccccc45)CC3)C2)c2ccccc2o1 [Compound 55]

>  <STUDY_TARGET>
S. aureus DNA gyrase (Staphylococcus aureus, UniProt P0A0K8+P20831)

>  <NUMERIC_READOUT>
86

$$$$

----------
# STUDY_TARGET: E. coli DNA gyrase (Escherichia coli, UniProt P0AES4+P0AES6)
# Construct: purchased Inspiralis, UK
# PROTOCOL: DNA gyrase supercoiling assay (E. coli)
# Format: biochemical
# EXPERIMENTAL_PARAMETERS: E. coli; conc. 50 μM; n/a = not active
Where a name gives a salt, the structure may show the parent alone.
Everything with inhibition at 50 µM lower than 90% is Not met; everything else, including exactly 90%, is Met.

>  <MOLECULE>
O=c1oc2ccccc2c2[nH]c(CCCN3CCN(c4nccc5ccc(F)cc45)CC3)nc12 [Compound 147]

>  <CATEGORY_LABEL>
Not met

$$$$
>  <MOLECULE>
O=c1nc(NCC(O)CN2CCN(c3nccc4nccnc34)CC2)c2cc(F)ccc2o1 (stereo not shown) [Compound 156]

>  <CATEGORY_LABEL>
Not met

$$$$
>  <MOLECULE>
O=c1oc2ccccc2c2[nH]c(CNC3CCN(c4nccc5ccc(F)cc45)CC3)c(C(F)(F)F)c12 [Compound 153]

>  <CATEGORY_LABEL>
Not met

$$$$
>  <MOLECULE>
O=c1cc(NCCCN2CCN(c3nccc4ccc(F)cc34)CC2)c2c(o1)CCOC2 [Compound 125]

>  <CATEGORY_LABEL>
Not met

$$$$
>  <MOLECULE>
NC(CN1CCN(c2nccc3ccc(F)cc23)CC1)c1nc2c(=O)oc3ccccc3c2[nH]1 (stereo not shown) [Compound 158, hydrochloride]

>  <CATEGORY_LABEL>
Met

$$$$
>  <MOLECULE>
COc1ccc2nccc(N3CCC(NCc4cc5c([nH]4)c(=O)oc4ccc(F)cc45)CC3)c2n1 [Compound 188]

>  <CATEGORY_LABEL>
Met

$$$$
>  <MOLECULE>
O=c1cc(NCCNC2CCN(c3nccc4ccc(F)cc34)CC2)c2cc(F)ccc2o1 [Compound 131]

>  <CATEGORY_LABEL>
Met

$$$$
>  <MOLECULE>
Fc1ccc2ccnc(N3CCN(CCNCc4cc5c(cn4)OCCC5)CC3)c2c1 [Compound 150]

>  <CATEGORY_LABEL>
Not met

$$$$
>  <MOLECULE>
COc1ccc2ncc(C#N)c(N3CCC(NCc4cc5c([nH]4)c(=O)oc4ccc(F)cc45)CC3)c2n1 [Compound 195]

>  <CATEGORY_LABEL>
Met

$$$$
>  <MOLECULE>
O=c1cc(NCCCN2CCC(c3nccc4ccccc34)CC2)c2ccccc2o1 [Compound 109]

>  <CATEGORY_LABEL>
Met

$$$$
>  <MOLECULE>
O=c1nc(NCC(O)CN2CCN(c3nccc4ncc(F)cc34)CC2)c2cc(F)ccc2o1 (stereo not shown) [Compound 162]

>  <CATEGORY_LABEL>
Met

$$$$
>  <MOLECULE>
O=c1oc2ccccc2c2[nH]c(CNC3CCN(c4nccc5ccc(F)cc45)CC3F)cc12 (stereo not shown) [Compound 172]

>  <CATEGORY_LABEL>
Met

$$$$
>  <MOLECULE>
C[N+]1(CCCNc2cc(=O)oc3ccccc23)CCN(c2nccc3ccccc23)CC1 [Compound 124]

>  <CATEGORY_LABEL>
Not met

$$$$
>  <MOLECULE>
NC(=O)C1CN(c2nccc3ccccc23)CCN1CCCNc1cc(=O)oc2ccccc12 (stereo not shown) [Compound 89, hydrochloride]

>  <CATEGORY_LABEL>
Not met

$$$$
>  <MOLECULE>
O=c1oc2ccccc2c2[nH]c(CNC3CCN(c4nccc5ccc(F)cc45)CC3)cc12 [Compound 145]

>  <CATEGORY_LABEL>
Met

$$$$

----------
# STUDY_TARGET: S. aureus DNA gyrase (Staphylococcus aureus, UniProt P0A0K8+P20831)
# Construct: purchased Inspiralis, UK
# PROTOCOL: DNA gyrase supercoiling assay (S. aureus)
# Assay type: biochemical
# EXPERIMENTAL_PARAMETERS: S. aureus; conc. 50 μM; n/a = not active
# Protocol: The above compounds were tested for the inhibition of the enzyme DNA gyrase in a gyrase supercoiling assay and for the inhibition of the enzyme topoisomerase IV in a decatenation assay, in both Gram positive and Gram negative bacteria, according to the following methods. […] Inhibitory activity was expressed as percent of inhibition versus the positive control. The supercoiled or decatenated DNA bands obtained as described in Example 1 were analysed as follows. […]
Counter-ions that a name gives are not always drawn.
MEASUREMENT_KIND: inhibition at 50 µM (%)

>  <MOLECULE>
Fc1ccc2ccnc(N3CCN(CCNCc4cc5c(cn4)OCCC5)CC3)c2c1

>  <STUDY_TARGET>
S. aureus DNA gyrase (Staphylococcus aureus, UniProt P0A0K8+P20831)

>  <NUMERIC_READOUT>
100

$$$$
>  <MOLECULE>
O=c1oc2ccccc2c2[nH]c(C(O)CN3CCN(c4nccc5ccc(F)cc45)CC3)nc12 (stereo not shown) [Compound 152, hydrochloride]

>  <STUDY_TARGET>
S. aureus DNA gyrase (Staphylococcus aureus, UniProt P0A0K8+P20831)

>  <NUMERIC_READOUT>
100

$$$$
>  <MOLECULE>
O=c1cc(NCCCN2CCN(c3nccc4ccccc34)CC2CO)c2ccccc2o1 (stereo not shown)

>  <STUDY_TARGET>
S. aureus DNA gyrase (Staphylococcus aureus, UniProt P0A0K8+P20831)

>  <NUMERIC_READOUT>
89

$$$$
>  <MOLECULE>
O=c1cc(NCC(O)CN2CCN(c3nccc4ncccc34)CC2)c2cc(F)ccc2o1 (stereo not shown)

>  <STUDY_TARGET>
S. aureus DNA gyrase (Staphylococcus aureus, UniProt P0A0K8+P20831)

>  <NUMERIC_READOUT>
70

$$$$
